Biological target: HCV polymerase (Hepatitis C virus genotype 1b, UniProt P26663)
Construct: a region encoding NS5B (J Virol 1991 March, 65(3), 1105-13, 544 amino acids after deletion of 47 amino acids on the C-terminal); 6xHis (C); made in house; host or cells: Escherichia coli
Sequence (P26663 2420-2963): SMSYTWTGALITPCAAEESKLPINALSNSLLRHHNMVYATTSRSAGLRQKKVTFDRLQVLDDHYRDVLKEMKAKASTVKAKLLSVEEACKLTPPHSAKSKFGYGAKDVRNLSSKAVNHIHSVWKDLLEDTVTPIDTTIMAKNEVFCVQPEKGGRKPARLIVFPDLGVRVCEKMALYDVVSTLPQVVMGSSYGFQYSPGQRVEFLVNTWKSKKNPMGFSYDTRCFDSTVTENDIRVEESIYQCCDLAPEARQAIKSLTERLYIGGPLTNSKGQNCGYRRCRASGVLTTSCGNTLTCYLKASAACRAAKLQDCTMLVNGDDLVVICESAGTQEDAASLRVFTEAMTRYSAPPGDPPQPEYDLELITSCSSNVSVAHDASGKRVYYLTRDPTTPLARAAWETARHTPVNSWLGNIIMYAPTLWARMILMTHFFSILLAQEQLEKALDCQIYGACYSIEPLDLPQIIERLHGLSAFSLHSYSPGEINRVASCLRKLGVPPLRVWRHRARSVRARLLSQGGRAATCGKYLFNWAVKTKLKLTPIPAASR
Test: biochemical
Set-up: species or system HCV BK strain
Structures can show the parent of a compound that is named as a salt.
Documented IC50 across a set of compounds

Consider the worked cases shown below.
| compound | IC50 |
| --- | --- |
| CCOc1ccc2c(c1)N(CCN1CCC(CCOC)CC1)CCn1c-2c(C2CCCCC2)c2ccc(C(=O)O)cc21 [Example 1-501, dihydrochloride] | < 100 nM |
| O=C(O)c1ccc2c(C3CCCCC3)c3n(c2c1)CCN(CC[C@@H]1CCCN(C2CCCC2)C1)c1cc(Cl)ccc1-3 [Example 1-404, dihydrochloride] | < 100 nM |
| O=C(O)c1ccc2c(C3CCCCC3)c3n(c2c1)CCN(CCCO)c1ccccc1-3 [Example 1-112, monohydrochloride] | < 100 nM |
| O=C(O)Cn1c(CNC(=O)c2ccc3c(C4CCCCC4)c4n(c3c2)CCOc2ccccc2-4)nc2ccccc21 | < 100 nM |
| COc1ccc2c(c1)OCCn1c-2c(C2CCCCC2)c2ccc(C(=O)NC3(c4nc5cc(OCC(=O)O)ccc5[nH]4)CCC3)cc21 | < 100 nM |

Next:
Tested on HCV polymerase (Hepatitis C virus genotype 1b, UniProt P26663), the item CN(CCN1CCn2c(c(C3CCCCC3)c3ccc(C(=O)O)cc32)-c2ccccc21)C1CCNC1 (stereo not drawn) [Example 1-285, dihydrochloride] showed IC50 equal to < 100 nM

====

Molecular target: HCV polymerase (Hepatitis C virus genotype 1b, UniProt P26663)
Construct: a region encoding NS5B (J Virol 1991 March, 65(3), 1105-13, 544 amino acids after deletion of 47 amino acids on the C-terminal); 6xHis (C); made in house; host or cells: Escherichia coli
Assay: biochemical
Set-up: species or system HCV BK strain
Counter-ions that a name gives are not always drawn.
test readout: IC50

| compound | study target | test readout | value reported |
| --- | --- | --- | --- |
| COCC[C@H]1CCCN(CCN2CCn3c(c(C4CCCCC4)c4ccc(C(=O)O)cc43)-c3ccc(Cl)cc32)C1 [Example 1-398, dihydrochloride] | HCV polymerase (Hepatitis C virus genotype 1b, UniProt P26663) | IC50 | < 100 nM |
| COc1ccc2c(c1)OCCn1c-2c(C2CCCCC2)c2ccc(C(=O)NC(C)(C)c3nc4cc(C(=O)O)c(OC)cc4[nH]3)cc21 [Example 2-347] | HCV polymerase (Hepatitis C virus genotype 1b, UniProt P26663) | IC50 | < 100 nM |

Field: next compound
Item: COc1ccc2c(c1)OCCn1c-2c(C2CCCCC2)c2ccc(C(=O)N[C@@H](Cc3c[nH]c4ccc(OCCO)cc34)c3csc(C)n3)cc21 [Example 2-421] | System: HCV polymerase (Hepatitis C virus genotype 1b, UniProt P26663) | IC50: < 100 nM

====

Target: HCV polymerase (Hepatitis C virus genotype 1b, UniProt P26663)
Construct: a region encoding NS5B (J Virol 1991 March, 65(3), 1105-13, 544 amino acids after deletion of 47 amino acids on the C-terminal); 6xHis (C); made in house; host or cells: Escherichia coli
Assay: biochemical
Set-up: species or system HCV BK strain
Structures can show the parent of a compound that is named as a salt.
test readout: IC50

Field: example entries. Status: answers known.
| compound | IC50 |
| --- | --- |
| O=C(CN1CCOCC1)Nc1ccc(N2CCOCC2)c(COc2ccc3c(c2)OCCn2c-3c(C3CCCCC3)c3ccc(C(=O)O)cc32)c1 [Example 2-21, dihydrochloride] | < 0.1 µM |
| COC(=O)COc1ccc2[nH]cc(C[C@H](NC(=O)c3ccc4c(C5CCCCC5)c5n(c4c3)CCOc3cc(OC)ccc3-5)c3csc(C)n3)c2c1 [Example 2-417] | < 0.1 µM |

# IC50 measured on HCV polymerase (Hepatitis C virus genotype 1b, UniProt P26663) for item Cc1ccc2c(c1)N(CCCN(C(C)C)C(C)C)CCn1c-2c(C2CCCCC2)c2ccc(C(=O)O)cc21 [Example 1-521, dihydrochloride] = < 0.1 µM
